Attribute: pIC50
Molecular target: human PCSK9 (Homo sapiens, UniProt Q8NBP7)
Sequence (Q8NBP7 153-692): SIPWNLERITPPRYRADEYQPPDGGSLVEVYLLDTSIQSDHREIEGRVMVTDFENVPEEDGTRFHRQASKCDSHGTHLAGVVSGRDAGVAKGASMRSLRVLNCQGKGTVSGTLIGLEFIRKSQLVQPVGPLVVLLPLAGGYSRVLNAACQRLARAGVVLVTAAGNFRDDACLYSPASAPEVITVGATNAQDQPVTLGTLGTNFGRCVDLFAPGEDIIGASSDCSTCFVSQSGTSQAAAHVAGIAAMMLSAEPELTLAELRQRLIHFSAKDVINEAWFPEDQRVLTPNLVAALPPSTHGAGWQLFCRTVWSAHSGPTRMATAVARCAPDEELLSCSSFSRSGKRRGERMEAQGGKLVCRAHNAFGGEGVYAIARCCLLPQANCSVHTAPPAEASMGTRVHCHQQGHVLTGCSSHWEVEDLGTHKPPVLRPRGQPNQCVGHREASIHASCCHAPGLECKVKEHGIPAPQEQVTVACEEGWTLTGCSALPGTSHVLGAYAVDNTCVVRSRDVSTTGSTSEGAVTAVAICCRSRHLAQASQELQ
Sequence (Q8NBP7 31-152 partner limits assumed): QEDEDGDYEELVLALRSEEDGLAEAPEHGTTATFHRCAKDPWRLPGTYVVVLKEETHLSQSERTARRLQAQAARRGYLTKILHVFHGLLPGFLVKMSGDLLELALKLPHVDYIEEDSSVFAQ
Test: PCSK9 ligand binding assay (TR-FRET): interference with binding of human PCSK9 to human LDLR
Settings: Human PCSK9 Alexa Fluor 647 / Human LDLR extracellular domain-Europium Kryptate
Experimental: Example 10: PCSK9 Ligand Binding Assay The PCSK9 binding of the compounds of the disclosure were measured using a time resolved fluorescence resonance energy transfer (TR-FRET) assay. This time resolved fluorescence resonance energy transfer (TR-FRET) assay measures the ability of a compound of the present disclosure to interfere with the binding of human PCSK9 to human LDLR, providing measures of both potency (IC50) and efficacy (Amax). Human PCSK9 Alexa Fluor 647 […]
pIC50: −log10 of the molar value.

smiles-code | pIC50
COC[C@@H]1NC(=O)[C@@H](C)N(Cc2c(F)cc(Cl)cc2Oc2ccc(-c3cnc(CN(C)C)n3C)nc2)C(=O)C[C@@H](CC(F)(F)F)C(=O)N2CCC[C@@](Cc3ccc(Cl)cc3)(C2)N(C)C1=O | 7.12
C[C@H]1C(=O)N[C@@H](COC(F)F)C(=O)N(C)[C@@]2(Cc3ccc(Cl)cc3)CCCN(C2)C(=O)[C@H](CC(F)(F)F)CC(=O)N1Cc1c(F)cc(Cl)cc1Oc1ccc(-c2cnc(CN(C)C)n2C)cc1 | 8.59
COC[C@@H]1NC(=O)[C@H](C)N(Cc2c(F)cc(Cl)cc2Oc2ccc(-c3cnc(CN(C)C)n3C)cc2)C(=O)C[C@@H](C2CCC2)C(=O)N2CCC[C@@](Cc3ccc(Cl)cc3)(C2)N(C)C1=O | 8.84
COC[C@@H]1NC(=O)[C@H](C)N(Cc2ccc(Cl)cc2Oc2ccc(-c3cnc(CN(C)C)n3C)nc2)C(=O)C[C@@H](Cc2ccccn2)C(=O)N2CCC[C@@](Cc3ccc(Cl)cc3)(C2)N(C)C1=O | 9.01
Cc1cccc(C[C@@H]2CC(=O)N(Cc3ccc(Cl)cc3Oc3ccc(-c4cnc(CN(C)C)n4C)cc3)[C@@H](C)C(=O)N[C@@H](CO)C(=O)N[C@@]3(Cc4ccc(Cl)cc4)CCCN(C3)C2=O)n1 | 9.25
COC[C@@H]1NC(=O)[C@H](C)N(Cc2ccc(Cl)cc2Oc2ccc(-c3cnc(CN(C)C)n3C)cc2)C(=O)C[C@@H](CC(F)(F)F)C(=O)N2CCC[C@@](Cc3ccc(Cl)cc3)(C2)N(C)C1=O | 9.66
C[C@H]1C(=O)N[C@@H](CO)C(=O)N[C@@]2(Cc3ccc(Cl)cc3)CCCN(C2)C(=O)[C@H](Cc2ccccc2)CC(=O)N1Cc1ccc(Cl)cc1Oc1ccc(-c2cnc(CN(C)C)n2C)c(F)c1 | 9.39
C[C@H]1C(=O)N[C@@H](CO)C(=O)N(C)[C@@]2(Cc3ccc(Cl)cc3)CCCN(C2)C(=O)[C@@H](CC(F)(F)F)CC(=O)N1Cc1c(F)cc(Cl)cc1Oc1ccc(-c2cnc(CN(C)C)n2C)cc1 | 8.24
COC[C@@H]1NC(=O)[C@H](C)N(Cc2ccc(Cl)cc2Oc2ccc(-c3cnc(CN4CCC(O)CC4)n3C)cc2)C(=O)C[C@@H](Cc2ccccc2)C(=O)N2CCC[C@@](Cc3ccc(Cl)cc3)(C2)NC1=O.Cl | 9.21
COC[C@@H]1NC(=O)[C@H](C)N(Cc2c(F)cc(Cl)cc2Oc2ccc(-c3cnc(CN(C)C)n3C)cc2)C(=O)C[C@@H](Cc2cccc(C)n2)C(=O)N2CCC[C@@](Cc3ccc(Cl)cc3)(C2)N(C)C1=O | 9.26

---

biological target: human PCSK9 (Homo sapiens); assay: PCSK9 ligand binding assay (TR-FRET): interference with binding of human PCSK9 to human LDLR; settings: efficacy (Amax), 100% = 1 uM unlabeled human PCSK9, 0% = DMSO
Attribute: Max % inhibition

compound | Max % inhibition
C[C@H]1C(=O)N[C@@H](CO)C(=O)N(C)[C@@]2(Cc3ccc(Cl)cc3)CCCN(C2)C(=O)[C@H](CC(F)(F)F)CC(=O)N1Cc1c(F)cc(Cl)cc1Oc1ccc(-c2cnc(CN(C)C)n2C)cc1 [Compound 82] | 108.5%
CCN(Cc1ncc(-c2ccc(Oc3cc(Cl)cc(F)c3CN3C(=O)C[C@@H](CC(F)(F)F)C(=O)N4CCC[C@@](Cc5ccc(Cl)cc5)(C4)NC(=O)[C@H](CO)NC(=O)[C@@H]3C)cc2)n1C)C1(C)CC1 [Compound 152] | 103.4%
C[C@H]1C(=O)N[C@@H](CO)C(=O)N(C)[C@H](Cc2ccc(Cl)cc2)CN(C)C(=O)[C@H]([C@H]2COc3ccccc32)CC(=O)N1Cc1ccc(Cl)cc1Oc1ccc(-c2cnc(CN3CCCC3)n2C)cc1.Cl [Compound 102] | 100.8%
COC[C@@H]1NC(=O)[C@H](C)N(Cc2c(F)cc(Cl)cc2Oc2ccc(-c3cnc(CN(C)C)n3C)cc2)C(=O)C[C@@H](Cc2ccccn2)C(=O)N2CCC[C@@](Cc3ccc(Cl)cc3)(C2)N(C)C1=O [Compound 57] | 115.6%

---

Biological target: human PCSK9 (Homo sapiens)
Test: PCSK9 ligand binding assay (TR-FRET): interference with binding of human PCSK9 to human LDLR
Conditions: efficacy (Amax), 100% = 1 uM unlabeled human PCSK9, 0% = DMSO
Method: Example 10: PCSK9 Ligand Binding Assay The PCSK9 binding of the compounds of the disclosure were measured using a time resolved fluorescence resonance energy transfer (TR-FRET) assay. This time resolved fluorescence resonance energy transfer (TR-FRET) assay measures the ability of a compound of the present disclosure to interfere with the binding of human PCSK9 to human LDLR, providing measures of both potency (IC50) and efficacy (Amax). Human PCSK9 Alexa Fluor 647 […]

smiles-code | study-system | Max % inhibition (%)
COC[C@@H]1NC(=O)[C@H](C)N(Cc2ccc(Cl)cc2Oc2cc(F)c(-c3cnc(CN4CCCC4)n3C)c(F)c2)C(=O)C[C@@H](Cc2ccccc2)C(=O)N(C)C[C@@H](Cc2ccc(Cl)cc2)N(C)C1=O.Cl | human PCSK9 (Homo sapiens) | 98.9
COC[C@@H]1NC(=O)[C@H](CCCN2CCOCC2)N(Cc2ccc(Cl)cc2Oc2ccc(-c3cnc(CN(C)C)n3C)cc2)C(=O)C[C@@H]([C@H]2CCc3ccccc32)C(=O)N(C)C[C@@H](Cc2ccc(Cl)cc2)N(C)C1=O.Cl | human PCSK9 (Homo sapiens) | 94.3
C[C@H]1C(=O)N[C@@H](CO)C(=O)N[C@@]2(Cc3ccc(Cl)cc3)CCCN(C2)C(=O)[C@H](Cc2ccccc2)CC(=O)N1Cc1c(Cl)cc(Cl)cc1Oc1ccc(-c2cnc(CN(C)C)n2C)cc1 | human PCSK9 (Homo sapiens) | 108.6
COC[C@@H]1NC(=O)[C@H](C)N(Cc2ccc(Cl)cc2Oc2ccc(-c3cnc(CN(C)C)n3C)cc2)C(=O)C[C@@H](Cc2cccc(C)n2)C(=O)N2CCC[C@@](Cc3ccc(Cl)cc3)(C2)N(C)C1=O | human PCSK9 (Homo sapiens) | 106.4
C[C@H]1C(=O)N[C@@H](CO)C(=O)N[C@@]2(Cc3ccc(Cl)cc3)CCCN(C2)C(=O)[C@H]([C@H]2CCc3ccccc32)CC(=O)N1Cc1ccc(Cl)cc1Oc1ccc(-c2cnc(CN(C)C)n2C)cn1 | human PCSK9 (Homo sapiens) | 98.3
CN(C)Cc1ncc(-c2ccc(Oc3cc(Cl)ccc3CN3C(=O)C[C@@H](Cc4ccccc4)C(=O)N4CCC[C@@](Cc5ccc(Cl)cc5)(C4)NC(=O)[C@H](CO)NC(=O)[C@@H]3CCN)cc2)n1C | human PCSK9 (Homo sapiens) | 104.3

---

target: human PCSK9 (Homo sapiens, UniProt Q8NBP7); test: PCSK9 ligand binding assay (TR-FRET): interference with binding of human PCSK9 to human LDLR; details: Human PCSK9 Alexa Fluor 647 / Human LDLR extracellular domain-Europium Kryptate

smiles-code | IC50
C[C@H]1C(=O)N[C@@H](CO)C(=O)N[C@@]2(Cc3ccc(Cl)cc3)CCCN(C2)C(=O)[C@H](Cc2ccccc2)CC(=O)N1Cc1cc(F)c(Cl)cc1Oc1ccc(-c2cnc(CN(C)C)n2C)cc1 | 0.624 nM
COC[C@@H]1NC(=O)[C@H](C)N(Cc2ccc(Cl)cc2Oc2ccc(-c3cnc(CN4CC[C@H](N(C)C)C4)n3C)cc2)C(=O)C[C@@H](Cc2ccccc2)C(=O)N2CCC[C@@](Cc3ccc(Cl)cc3)(C2)NC1=O.Cl | 0.837 nM
C[C@H]1C(=O)N[C@@H](CO)C(=O)N[C@@]2(Cc3ccc(Cl)cc3)CCCN(C2)C(=O)[C@H](CC(F)(F)F)CC(=O)N1Cc1c(F)cc(Cl)cc1Oc1ccc(-c2cnc(CN3CCC3)n2C)cc1 | 0.612 nM
COC[C@@H]1NC(=O)[C@H](C)N(Cc2ccc(Cl)cc2Oc2ccc(-c3cnc(CN4CC[C@H](O)C4)n3C)cc2)C(=O)C[C@@H](Cc2ccccc2)C(=O)N2CCC[C@@](Cc3ccc(Cl)cc3)(C2)NC1=O.Cl | 0.572 nM
